target: Wee1 kinase (Homo sapiens, UniProt P30291); test: Wee1 Binding Assay (FRET); conditions: FRET, Wee1 kinase 2 nM, tracer 178 50 nM, 60 min at RT; read-out: Wee1 enzymatic IC50
Sequence (P30291 whole entry): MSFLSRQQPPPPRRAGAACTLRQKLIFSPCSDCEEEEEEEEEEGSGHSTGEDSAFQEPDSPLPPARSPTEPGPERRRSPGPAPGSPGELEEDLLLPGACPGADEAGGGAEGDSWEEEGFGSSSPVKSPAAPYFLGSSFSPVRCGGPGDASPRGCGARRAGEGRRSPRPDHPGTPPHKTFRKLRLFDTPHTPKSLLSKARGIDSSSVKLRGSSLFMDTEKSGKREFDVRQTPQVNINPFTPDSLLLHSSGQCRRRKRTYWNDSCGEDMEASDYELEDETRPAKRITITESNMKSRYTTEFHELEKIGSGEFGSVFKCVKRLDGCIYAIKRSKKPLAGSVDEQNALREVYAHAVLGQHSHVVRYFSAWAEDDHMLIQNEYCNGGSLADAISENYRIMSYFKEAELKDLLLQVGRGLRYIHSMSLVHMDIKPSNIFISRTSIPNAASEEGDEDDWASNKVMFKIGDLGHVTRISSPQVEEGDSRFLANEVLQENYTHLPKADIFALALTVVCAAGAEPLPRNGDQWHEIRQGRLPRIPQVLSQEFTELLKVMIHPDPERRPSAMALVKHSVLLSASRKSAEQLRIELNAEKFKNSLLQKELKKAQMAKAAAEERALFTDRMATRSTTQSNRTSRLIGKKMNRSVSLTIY
Readings of IC50 for the listed molecules

# count of solved cases: 2
C=CCn1c(=O)c2cnc(Nc3ccc(N4CCN(C)CC4)cc3)nc2n1-c1ccc2c(n1)C(=O)NC2; < 10 nM
C=CCn1c(=O)c2cnc(Nc3ccc(N4CCN(C)CC4)cc3)nc2n1-c1cnc2c(c1)[C@@](C)(O)CO2 (single isomer, unassigned) [Example 35A]; 10 to 100 nM

// next entry
Query: Can you share its IC50? I mean this molecule: C=CCn1c(=O)c2cnc(Nc3ccc(N4CCN(C)CC4)cc3)nc2n1-c1ccc2c(c1)[C@](O)(CC)CC2 (single isomer, unassigned) [Example 22A]
Result: 10 to 100 nM
